tested on: Fibroblast; test: Multiplex assay against human fibroblast; type: toxicity, cell-based; conditions: 24 h, 1 µM, compound concentration 1 uM, replicate 2
endpoint label: Population Fragmented Nuclei (%)
Write the number in % without appending the unit.

These recorded examples may help you get a feel for the data.
{"compound": "CN(C)C/C=C/C(=O)Nc1cc2c(Nc3ccc(F)c(Cl)c3)ncnc2cc1O[C@H]1CCOC1.O=C(O)/C=C\\C(=O)O.O=C(O)/C=C\\C(=O)O [AFATINIB DIMALEATE]", "Population Fragmented Nuclei (%)": 54}
{"compound": "Cc1cn(-c2cc(NC(=O)c3ccc4c(c3)CN(c3cncnc3)C[C@@H]4C)cc(C(F)(F)F)c2)cn1", "Population Fragmented Nuclei (%)": 51}
{"compound": "CCCn1c(=O)c2[nH]c(C34CC5CC(CC3C5)C4)nc2n(CCC)c1=O", "Population Fragmented Nuclei (%)": 7}
{"compound": "O=C(O)c1ccc2cc(-c3ccc(O)c(C45CC6CC(CC(C6)C4)C5)c3)ccc2c1", "Population Fragmented Nuclei (%)": 7}
{"compound": "CNC(=O)c1nn(C)c2c1C(C)(C)Cc1cnc(Nc3ccc(N4CCN(C)CC4)cc3)nc1-2", "Population Fragmented Nuclei (%)": 60}

Incoming: Would you kindly share the measured Population Fragmented Nuclei (%) for "CC(C)N1CCC(C)(C)c2cc(C#Cc3ccc(C(=O)O)cc3)ccc21" ?
Outgoing: 18

Incoming: And then "Nc1ccc(C(=O)Nc2cccc(-c3nc(N4CCOCC4)c4oc5ncccc5c4n3)c2)cn1" , what is it?
Outgoing: 28

Incoming: Next: "Cc1cc2c(cc1N1C(=O)c3cccc4c(CCCO)ccc(c34)C1=O)n(C)c(=O)n2C"
Outgoing: 7

Incoming: Proceed to "CCc1cc2c(cc1CC)CC(NC[C@H](O)c1ccc(O)c3[nH]c(=O)ccc13)C2"
Outgoing: 4

Incoming: Now consider "c1ccc2oc(-c3csc(C4CCN(Cc5nc6ncccc6[nH]5)CC4)n3)cc2c1" .
Outgoing: 64

Incoming: Same for "Cl.Cl.NC1(c2ccc(-c3nc4ccn5c(=O)[nH]nc5c4cc3-c3ccccc3)cc2)CCC1"
Outgoing: 57

Incoming: What do we get for "N#Cc1cnc(Nc2cc(NC[C@H]3CNCCO3)c(C(F)(F)F)cn2)cn1" ?
Outgoing: 63

Incoming: Now give it for "COc1cc2c(NC3CCN(C(C)C)CC3)nc(N3CCC(F)(F)CC3)nc2cc1OCCCN1CCCC1" too.
Outgoing: 14

Incoming: Also CC(C)Oc1ccc(C(=O)N[C@H](CNC(=O)CN(C)C)Cc2ccc(-c3cn4cccc([C@H](C)O)c4n3)cc2)cc1Cl [GSK-923295A] ?
Outgoing: 58

Incoming: One more compound: "CC(=O)c1cc(-c2cc(C(=O)NC3CC3)ccc2C)c2ncccn12"
Outgoing: 3

Incoming: // same read-out, input: "CC(C)(C)c1cnc(CSc2cnc(NC(=O)C3CCNCC3)s2)o1"
Outgoing: 51

Incoming: Can you handle "Cl.Cl.Nc1ncnc2c1c(-c1cccc(OCc3ccccc3)c1)cn2[C@H]1C[C@@H](CN2CCC2)C1" next?
Outgoing: 13

All values here come from ChEMBL document CHEMBL4689842.
